B1: FAM50A (parent)
chain: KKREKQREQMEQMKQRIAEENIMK

Variants of: B1
method description: protein stability index of a GFP-peptide fusion (GPS, HEK-293T) (PSI 1-6); higher = more stable;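 further: lentivirally expressed fusions sorted by FACS into six bins by GFP to DsRed ratio, PSI derived from sequencing read proportions per bin multiplied by bin number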
conditions used: c terminus: a fixed tail appended
As shown below, each of these variants has a reported protein stability index value.
measured parameter: protein stability index

{"mut": "K5A", "reported measurement": 4.38}
{"mut": "E20T", "reported measurement": 4.85}
{"mut": "Q12T", "reported measurement": 4.7}
{"mut": "I17Y", "reported measurement": 4.46}
{"mut": "M23I", "reported measurement": 4.04}
{"mut": "E8D", "reported measurement": 4.63}
{"mut": "Q15I", "reported measurement": 4.51}
{"mut": "I17F", "reported measurement": 5.12}
{"mut": "K5S", "reported measurement": 4.92}
{"mut": "I22F", "reported measurement": 3.93}
{"mut": "A18T", "reported measurement": 4.59}
{"mut": "E11N", "reported measurement": 4.86}
{"mut": "E19A", "reported measurement": 4.63}
{"mut": "K24V", "reported measurement": 4.82}
{"mut": "K2P", "reported measurement": 5.22}
{"mut": "R7S", "reported measurement": 5.51}
{"mut": "K24S", "reported measurement": 4.88}
{"mut": "M23Q", "reported measurement": 5.45}
{"mut": "M23K", "reported measurement": 4.99}
{"mut": "K24R", "reported measurement": 4.16}
{"mut": "E20Q", "reported measurement": 4.17}
{"mut": "E19D", "reported measurement": 4.33}
{"mut": "K5G", "reported measurement": 4.55}
{"mut": "K14L", "reported measurement": 4.11}
{"mut": "N21V", "reported measurement": 4.03}
{"mut": "K1L", "reported measurement": 4.62}
{"mut": "K14N", "reported measurement": 4.86}
{"mut": "E8I", "reported measurement": 4.51}
{"mut": "K5E", "reported measurement": 5.26}
{"mut": "Q9Y", "reported measurement": 4.51}
{"mut": "I17G", "reported measurement": 5.41}
{"mut": "E4D", "reported measurement": 5.21}
{"mut": "K24P", "reported measurement": 4.46}
{"mut": "K1C", "reported measurement": 4.67}
{"mut": "Q6G", "reported measurement": 4.62}
{"mut": "E11V", "reported measurement": 4.66}
{"mut": "Q9P", "reported measurement": 4.89}
{"mut": "K14D", "reported measurement": 5.02}
{"mut": "M23T", "reported measurement": 4.93}
{"mut": "R7C", "reported measurement": 4.71}
{"mut": "M10L", "reported measurement": 4.07}
{"mut": "I17L", "reported measurement": 4.92}
{"mut": "R16F", "reported measurement": 4.52}
{"mut": "M13R", "reported measurement": 5.08}
{"mut": "E11F", "reported measurement": 4.15}
{"mut": "E8C", "reported measurement": 4.15}
